These measurements were taken from PubChem BioAssay (NCI).

# System: CAKI-1 renal
# PROCEDURE TEXT: NCI tumour cell line growth inhibition, 48 h
Answer each item with its documented GI50.

Recorded GI50 for `Cn1cc(C2=C(c3cn(C)c4cc(N)ccc34)C(=O)NC2=O)c2ccccc21` , please?
1.39 µM

What value of GI50 has been recorded for this entry: `CNCCNc1nc2ccccc2c2c(=O)c3cc(F)ccc3sc12`
1.38 µM

What does the record list as GI50 for `C/C(=C(/c1ccc(O)cc1)c1ccc(Cl)cc1)c1ccccc1` ?
0.781 µM

Entry under review: `O=C(Nc1ccc(Br)cc1)Nc1nn(C(=O)Nc2ccc(Br)cc2)c2ccccc12` . Reported GI50?
44.2 µM

// lookup GI50 for `CCCCCCNC(=O)n1cc(F)c(=O)[nH]c1=O`
1.64 µM

Which GI50 reading was recorded for the compound `C=C(C)[C@@H]1CC[C@]2(CO)CC[C@]3(C)[C@H](CC[C@@H]4[C@@](C)(CCCN)[C@H](C(=C)C)CC[C@]43C)[C@@H]12` ?
1.79 µM

Bench note: what GI50 did `CCCCN(CC)c1ncnc2ccc(Br)cc12` show?
8.7 µM

Please look up its GI50: `Cc1cc2nc(-c3c(N)ncc(C#N)c3-c3ccc(Cl)cc3)[nH]c2cc1C`
12.1 µM

# input compound: `COc1ccc(NC(=O)n2nc(/C=C\c3ccc(O)c(OC)c3)cc2/C=C\c2ccc(O)c(OC)c2)cc1` ; wanted: its GI50
3.6 µM

Param item = `COC(=O)c1ccc(CN2C(=O)C(Cl)=C(Nc3ccc(OC)c(Cl)c3)C2=O)cc1` ; retrieve measured GI50.
17.3 µM
